Biological target: cytochrome P450 2C9-isoenzyme (Homo sapiens (Human))
Sequence (P11712 whole entry): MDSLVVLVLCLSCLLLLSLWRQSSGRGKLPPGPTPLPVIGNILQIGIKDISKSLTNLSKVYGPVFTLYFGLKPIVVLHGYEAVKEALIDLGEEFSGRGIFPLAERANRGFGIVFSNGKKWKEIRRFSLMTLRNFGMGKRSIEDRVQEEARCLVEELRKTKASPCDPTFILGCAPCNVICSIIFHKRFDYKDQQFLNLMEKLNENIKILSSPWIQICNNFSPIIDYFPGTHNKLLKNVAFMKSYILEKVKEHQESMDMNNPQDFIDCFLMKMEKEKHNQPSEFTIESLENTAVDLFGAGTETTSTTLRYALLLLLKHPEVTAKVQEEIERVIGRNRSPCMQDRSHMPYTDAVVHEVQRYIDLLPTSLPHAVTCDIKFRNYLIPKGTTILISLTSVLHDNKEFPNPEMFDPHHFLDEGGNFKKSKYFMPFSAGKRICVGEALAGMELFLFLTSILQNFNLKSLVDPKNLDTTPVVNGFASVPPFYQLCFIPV
Assay: Inhibition of CYP-2C9 (diclofenac hydroxylation, human liver microsomes)
Type: in vitro ADME
Details: diclofenac 10 μM, 37° C.
MEASURE_NAME: pIC50
Conceptually, pIC50 converts a concentration in mol/L into minus its log10.

Worked cases, answers included:
{"columns": ["COMPOUND", "TESTED_ON", "pIC50"],
 "data": [
  ["CC(C)c1ccccc1-c1ccc(F)c2c1CC[C@H]2Nc1ccc([C@H]2C[C@@H]2C(=O)O)nc1", "cytochrome P450 2C9-isoenzyme (Homo sapiens (Human))", 4.66],
  ["Cc1cc(C(=O)NCC(C)(C)O)cc(C)c1-c1ccc(F)c2c1CC[C@H]2Oc1ccc([C@H]2C[C@@H]2C(=O)O)cc1 [Example 15 in WO 2013/178575, reference compound]", "cytochrome P450 2C9-isoenzyme (Homo sapiens (Human))", 4.51]
]}

Below: the item to evaluate.
Bench note: what pIC50 did Cc1cc(-c2nnn(C)n2)cc(C)c1-c1ccc(F)c2c1CC[C@H]2Oc1ccc([C@H]2C[C@@H]2C(=O)O)cc1 [Example 45 in WO 2013/178575, reference compound] show?
5.00
